Where do these numbers come from? They come from ChEMBL document CHEMBL5579899.

test: Inhibition of IL-6 production in IL-17/TNF-alpha stimulated human NHDF cells incubated for 24 hrs by ELISA; assay type: functional, cell-based; settings: 24 h
pIC50: −log10 of the molar value.
valueKind: pIC50

>>> assayvalue("COC[C@H](c1cnn2cc([C@@H](Nc3ncc(C4CC4)o3)C3CCC(F)(F)CC3)nc2c1)N1C[C@@H](C(F)(F)F)NC1=O")
7.19

P = COC[C@H](c1cnn2cc([C@@H](Nc3nnc(C(C)(F)F)o3)C3CCC(F)(F)CC3)nc2c1)N1C[C@@H](C(F)(F)F)NC1=O
Q = COC[C@H](c1cnn2cc([C@@H](Nc3nnc(C)s3)C3CCC(F)(F)CC3)nc2c1)N1C[C@@H](C(F)(F)F)NC1=O
R = COC[C@H](c1cnn2cc([C@@H](Nc3nnc(C4CC4)o3)C3CCC(F)(F)CC3)nc2c1)N1C[C@@H](C(F)(F)F)NC1=O
Please rank these compounds by pIC50 in descending order. Form entry: labels listed in requested order.
P, R, Q
(P: 8.10, R: 7.82, Q: 7.35)
